run parameters: in isobutanol, 288.15 K
parameter: solubility (mole fraction)

- molecule smiles: "CC(=O)N[C@@H](CCC(N)=O)C(=O)O"
  result: 0.000309

###

run parameters: in water, 308.15 K
parameter: solubility (mole fraction)

- molecule smiles: "CC(=O)N[C@@H](CCC(N)=O)C(=O)O"
  result number: 0.0043

###

run parameters: in n-propanol, 288.15 K
parameter: solubility (mole fraction)

- molecule smiles: "CC(=O)N[C@@H](CCC(N)=O)C(=O)O"
  parameter: "solubility (mole fraction)"
  result number: 0.000405

###

run parameters: in sec-butanol, 313.15 K

- molecule smiles: "CC(=O)N[C@@H](CCC(N)=O)C(=O)O"
  solubility (mole fraction): 0.000661
